FYI, the data here is from PubChem BioAssay AID2391.

assay: inhibition of RSV-induced cytopathic effect – HEp-2 cells, primary 10 µM value included (AID 2391); details: at 10 µM, hits give high values
The campaign covered roughly 310,000 compounds. About 410 (0.13%) were called active. Not shown: some 2% with an inconclusive outcome. Only a sample is shown. Results with a measured potency or affinity are listed apart.
QUANTITY: CPE inhibition (%)
Report as a plain number; the unit % is understood.

Use the examples below as a reference point.
COMPOUND	QUANTITY	UNIT ANNOTATION	RECORDED NUMBER
Cc1ccc(N2C(=O)c3ccc(N)cc3C2=O)cc1	CPE inhibition	%	1
Cc1cc(C)n2nc(SCc3c(F)cccc3Cl)nc2n1	CPE inhibition	%	0.85
CNC(=O)NC(=O)COC(=O)/C=C/c1cccc(Br)c1	CPE inhibition	%	4.26
COc1ccc(NC(=S)NCCN2CCC(C)CC2)cc1Cl	CPE inhibition	%	-1.89
CCn1cc(C(=O)NCc2ccncc2)c(=O)c2cc(F)c(N3CCN(C(=O)c4ccco4)CC3)cc21	CPE inhibition	%	4.28

## Input Dear colleague, I am looking for the recorded CPE inhibition of the following compound: O=C(NCc1ccco1)c1ccc(Cn2c(=O)c3ccccc3n(Cc3cccc(F)c3)c2=O)cc1
## Output 4.05

## Input Dear colleague, I am looking for the recorded CPE inhibition of the following compound: COCCCNC(=O)c1ccc(Cn2c(=O)c3ccccc3n(Cc3cc(C)ccc3C)c2=O)cc1
## Output 1.91

## Input Dear colleague, I am looking for the recorded CPE inhibition of the following compound: O=C(O)CN=C(NS(=O)(=O)c1ccc(Cl)cc1)c1ccc(F)cc1
## Output 0.86

## Input Dear colleague, I am looking for the recorded CPE inhibition of the following compound: O=C(NCc1ccco1)c1ccc2c(=O)n(-c3ccccc3)c(=O)n(Cc3cccc(F)c3)c2c1
## Output 0.67

## Input Dear colleague, I am looking for the recorded CPE inhibition of the following compound: CCN1CCCC(CO)(Cc2ccccc2)C1 (stereo not drawn)
## Output -0.72

## Input Dear colleague, I am looking for the recorded CPE inhibition of the following compound: O=[N+]([O-])c1cccc(-c2csc(Nc3ccccc3)n2)c1
## Output 0.52

## Input Dear colleague, I am looking for the recorded CPE inhibition of the following compound: Cc1cc(NC(=O)COC(=O)c2oc3c(Cl)cccc3c2C)no1
## Output 2.63

## Input Dear colleague, I am looking for the recorded CPE inhibition of the following compound: CCn1cc(C(=O)NCc2ccco2)c(=O)c2cc(F)c(N3CCN(C(=O)c4ccco4)CC3)cc21
## Output 0.76

----------
assay: inhibition of RSV-induced cytopathic effect – HEp-2 cells, primary 10 µM value included (AID 2391); conditions: at 10 µM, hits give high values
Hit rate of the full screen: of about 310,000 compounds, about 410 (0.13%) were called active. Not shown: some 2% with an inconclusive outcome. Not all results are given here. Potency and affinity values are given separately.
Quick list: CPE inhibition per entry.
Report as a plain number; the unit % is understood.

Use the examples below as a reference point.
COMPOUND	UNIT ANNOTATION	CPE inhibition
CCc1ccc(N2CC(C(=O)OCC(=O)NNC(=O)c3ccccc3)CC2=O)cc1 (stereo not drawn)	%	1.46
C=C(C)C(=O)Nc1cccc(C2=NOC3(C2)C[C@H](C(N)=O)N(C(=O)c2ccccc2)C3)c1 (stereo partly drawn)	%	1.43
CN1CCc2[nH]c3ccc(C(=O)NN)cc3c2C1	%	-1.2
COc1ccc(-n2c(=O)c3ccccc3n(CC(=O)NC3CCCC3)c2=O)cc1	%	0.83
C/C(N)=C(/C#N)C(=O)COC(=O)c1ccc(C#N)cc1	%	0.83

## Input Dear colleague, I am looking for the recorded CPE inhibition of the following compound: O=C(NCc1ccccc1Cl)C1CCCN(S(=O)(=O)c2cccc3nonc23)C1 (stereo not drawn)
## Output 0.66

## Input Dear colleague, I am looking for the recorded CPE inhibition of the following compound: C/C=C(/C)C(=O)Nc1cccc(C2=NOC3(C2)C[C@@H](C(N)=O)N(C(=O)c2ccc(OC)cc2)C3)c1 (stereo partly drawn)
## Output 0.8

## Input Dear colleague, I am looking for the recorded CPE inhibition of the following compound: COc1ccc(OCc2n[nH]c(=S)n2Cc2ccco2)cc1
## Output 2.67

## Input Dear colleague, I am looking for the recorded CPE inhibition of the following compound: CC(C)(C)C(=O)CC1(O)C(=O)N(Cc2ccccc2)c2ccccc21 (stereo not drawn)
## Output 1.23

## Input Dear colleague, I am looking for the recorded CPE inhibition of the following compound: O=C(NCc1ccc(Cl)cc1)C1CCN(S(=O)(=O)c2cccc3nonc23)CC1
## Output 5.35

## Input Dear colleague, I am looking for the recorded CPE inhibition of the following compound: COC(=O)c1ccc(C(C(=O)NC2CCCCC2)N(Cc2ccc(F)cc2)C(=O)Cc2cccs2)cc1 (stereo not drawn)
## Output 7.57

## Input Dear colleague, I am looking for the recorded CPE inhibition of the following compound: COc1ccc(CNC(=O)C2CCN(S(=O)(=O)c3cccc4nonc34)CC2)cc1
## Output 0.73

## Input Dear colleague, I am looking for the recorded CPE inhibition of the following compound: O=C(c1cc(Br)ccc1OC(F)F)N1CCN2CCCC2C1 (stereo not drawn)
## Output 0.87

----------
test: inhibition of RSV-induced cytopathic effect – HEp-2 cells, primary 10 µM value included (AID 2391); conditions: at 10 µM, hits give high values
Among all 310,000 compounds or so, about 410 (0.13%) were called active. Roughly 2% stayed inconclusive and do not appear here. The list is a sample of the results. Potency and affinity values are given separately.
QUANTITY: CPE inhibition (%)
Report as a plain number; the unit % is understood.

MOLECULE	QUANTITY	RECORDED NUMBER
COC(=O)c1ccccc1OC(=O)c1cc2ccccc2oc1=O	CPE inhibition	-0.19
Cc1ccc2cc3cc(C(=O)N4CCCCCC4)oc3nc2c1	CPE inhibition	58.9
O=c1nc(Nc2ccc(OCc3ccccc3)cc2)sc2ncccc12	CPE inhibition	43.1
CC1Cc2ccccc2N1C(=O)COC(=O)c1ccc(Br)o1 (stereo not drawn)	CPE inhibition	-0.89
Cc1ccc(-c2ccc(/C=N/NC(=S)Nc3ccccc3)o2)cc1[N+](=O)[O-]	CPE inhibition	17.4

Proceeding to the next molecule to report its CPE inhibition.
## Input Dear colleague, I am looking for the recorded CPE inhibition of the following molecule: CC(C)S(=O)(=O)CC(=O)c1ccc(Cl)cc1
## Output 1.72

----------
assay: inhibition of RSV-induced cytopathic effect – HEp-2 cells, primary 10 µM value included (AID 2391); conditions: at 10 µM, hits give high values
About 410 (0.13%) of roughly 310,000 compounds were called active. Not shown: some 2% with an inconclusive outcome. A selection follows. Potency and affinity values are given separately.
QUANTITY: CPE inhibition (%)
Report as a plain number; the unit % is understood.

COMPOUND	CPE inhibition, %
CSc1ccccc1OCc1cc(C(=O)N(C)Cc2cc(C)[nH]n2)no1	4.8
Cn1nnnc1SCC(=O)N(C1CCCCC1)C1CCS(=O)(=O)C1 (stereo not given)	-0.03
COc1ccc(NC(=O)C2CCCN2S(=O)(=O)c2cccc3cccnc23)c(OC)c1 (stereo not given)	7.4
COc1ccccc1CNC(=O)C1CCCN(S(=O)(=O)c2cccc3cccnc23)C1 (stereo not given)	0.63

Proceeding to the next compound to report its CPE inhibition.
## Input Dear colleague, I am looking for the recorded CPE inhibition of the following compound: Cc1cc(-c2cc(C(=O)NCc3ccccc3)on2)nc(S(C)(=O)=O)n1
## Output 2.46

----------
assay: inhibition of RSV-induced cytopathic effect – HEp-2 cells, primary 10 µM value included (AID 2391); conditions: at 10 µM, hits give high values
The whole screen tested about 310,000 compounds, of which about 410 (0.13%) were called active. Inconclusive results (about 2%) are left out. These entries were drawn from the full list. Results with a measured potency or affinity are listed apart.
QUANTITY: CPE inhibition (%)
Report as a plain number; the unit % is understood.

COMPOUND	CPE inhibition / %
CCOC(=O)C1CCCN(c2c(Nc3ccc(C)c(C)c3)c(=O)c2=O)C1 (configuration not stated)	1
CCOC(=O)C[C@H]1c2ccccc2S(=O)(=O)N1Cc1cc(OC)c(OC)c(OC)c1	1.62
C=CCN(c1ccc(F)cc1)S(=O)(=O)c1cc(C(=O)OCC(=O)N(C)C2CCS(=O)(=O)C2)ccc1Cl (configuration not stated)	0.97
COc1cc2c(cc1OC)[C@H](C)N(C(=O)CSc1nc(O)c(C(C)C)c(=O)[nH]1)CC2	0.69
Cc1ccc2[nH]c(=O)c(N3CCOCC3)c(-c3ccccc3)c2c1	0.29

## Input Dear colleague, I am looking for the recorded CPE inhibition of the following compound: Cc1cc(NCCCn2ccnc2)n2nc(-c3ccc(F)cc3)cc2n1
## Output -1.16

## Input Dear colleague, I am looking for the recorded CPE inhibition of the following compound: O=C(CN1C(=O)NC2(CCCCCC2)C1=O)Nc1ccc2c(c1)CCC2
## Output 2.7

## Input Dear colleague, I am looking for the recorded CPE inhibition of the following compound: CCOC(=O)c1cc(-c2ccccc2)sc1NC(=O)C(C)(C)C
## Output 0.09

## Input Dear colleague, I am looking for the recorded CPE inhibition of the following compound: COCCNc1cc(C)nc2cc(-c3ccc(C)cc3)nn12
## Output 2.67

## Input Dear colleague, I am looking for the recorded CPE inhibition of the following compound: Cc1ccc(C(CC(=O)O)C2CCOC(C)(C)C2)cc1 (configuration not stated)
## Output 0.31
